# credit: the supplement of paper PMC10567573

B1: BTBD1 (parent)
chain: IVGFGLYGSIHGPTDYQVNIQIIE

# Variants of: B1
# test.summary: protein stability index of a GFP-peptide fusion (GPS, HEK-293T) (PSI 1-6); higher = more stable;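 note: lentivirally expressed fusions sorted by FACS into six bins by GFP to DsRed ratio, PSI derived from sequencing read proportions per bin multiplied by bin number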
# experimental.setup: c terminus: a fixed tail appended
Param threshold (2) applies to protein stability index; output t when value >= threshold, f when value < threshold.

(Q) Could you please find out whether IVGFGIYGSIHGPTDYQVNIQIIE [L6I] has protein stability index that meets 2 or exceeds it?
(A) t

(Q) Another variant: IVGFGLYGSIHGPTDYQVNAQIIE [I20A]
(A) t

(Q) Another variant: IVGFGLYGSGHGPTDYQVNIQIIE [I10G]
(A) t

(Q) Another variant: IVGFGLYGSIHGPTDYQVNIQSIE [I22S]
(A) t

(Q) Another variant: IVGFGLYGSIHGPTDHQVNIQIIE [Y16H]
(A) f

(Q) Another variant: TVGFGLYGSIHGPTDYQVNIQIIE [I1T]
(A) f

(Q) Another variant: IVGFGLYGSIHGPTDYQVNQQIIE [I20Q]
(A) t

(Q) Another variant: IVGFGLYDSIHGPTDYQVNIQIIE [G8D]
(A) t

(Q) Another variant: IVWFGLYGSIHGPTDYQVNIQIIE [G3W]
(A) t

(Q) Another variant: IVGFGLYGSIHGPTDYQVNICIIE [Q21C]
(A) t

(Q) Another variant: IVGGGLYGSIHGPTDYQVNIQIIE [F4G]
(A) f
